Measured pIC50 by item
assay_target: integrin α4β7 (Homo sapiens, UniProt P13612+P26010)
Sequence (P13612 34-1032): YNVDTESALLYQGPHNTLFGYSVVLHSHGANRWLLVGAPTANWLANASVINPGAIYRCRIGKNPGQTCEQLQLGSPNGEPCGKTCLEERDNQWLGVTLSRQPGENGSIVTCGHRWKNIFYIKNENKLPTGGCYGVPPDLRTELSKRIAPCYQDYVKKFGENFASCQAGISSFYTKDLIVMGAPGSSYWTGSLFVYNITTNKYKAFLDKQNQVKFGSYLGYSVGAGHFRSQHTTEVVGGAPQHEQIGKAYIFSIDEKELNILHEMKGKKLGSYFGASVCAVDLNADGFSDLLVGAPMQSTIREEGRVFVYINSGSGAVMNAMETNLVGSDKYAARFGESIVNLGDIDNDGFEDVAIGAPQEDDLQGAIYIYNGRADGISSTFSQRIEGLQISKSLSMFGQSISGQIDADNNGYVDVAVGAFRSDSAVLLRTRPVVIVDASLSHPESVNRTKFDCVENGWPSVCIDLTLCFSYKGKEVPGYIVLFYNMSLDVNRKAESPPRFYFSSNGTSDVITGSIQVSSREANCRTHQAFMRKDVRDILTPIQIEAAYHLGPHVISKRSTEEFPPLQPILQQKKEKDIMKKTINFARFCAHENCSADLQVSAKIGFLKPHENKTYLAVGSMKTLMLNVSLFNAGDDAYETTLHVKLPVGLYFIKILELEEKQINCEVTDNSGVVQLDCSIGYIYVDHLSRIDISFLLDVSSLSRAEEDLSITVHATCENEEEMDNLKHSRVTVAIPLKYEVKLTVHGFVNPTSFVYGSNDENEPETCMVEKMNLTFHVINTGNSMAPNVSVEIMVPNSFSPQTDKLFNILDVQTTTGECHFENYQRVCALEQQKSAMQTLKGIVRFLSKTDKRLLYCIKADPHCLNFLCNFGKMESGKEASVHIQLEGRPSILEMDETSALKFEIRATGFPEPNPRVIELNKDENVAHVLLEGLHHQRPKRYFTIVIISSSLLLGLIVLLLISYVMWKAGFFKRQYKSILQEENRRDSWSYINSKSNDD
Sequence (P26010 20-798): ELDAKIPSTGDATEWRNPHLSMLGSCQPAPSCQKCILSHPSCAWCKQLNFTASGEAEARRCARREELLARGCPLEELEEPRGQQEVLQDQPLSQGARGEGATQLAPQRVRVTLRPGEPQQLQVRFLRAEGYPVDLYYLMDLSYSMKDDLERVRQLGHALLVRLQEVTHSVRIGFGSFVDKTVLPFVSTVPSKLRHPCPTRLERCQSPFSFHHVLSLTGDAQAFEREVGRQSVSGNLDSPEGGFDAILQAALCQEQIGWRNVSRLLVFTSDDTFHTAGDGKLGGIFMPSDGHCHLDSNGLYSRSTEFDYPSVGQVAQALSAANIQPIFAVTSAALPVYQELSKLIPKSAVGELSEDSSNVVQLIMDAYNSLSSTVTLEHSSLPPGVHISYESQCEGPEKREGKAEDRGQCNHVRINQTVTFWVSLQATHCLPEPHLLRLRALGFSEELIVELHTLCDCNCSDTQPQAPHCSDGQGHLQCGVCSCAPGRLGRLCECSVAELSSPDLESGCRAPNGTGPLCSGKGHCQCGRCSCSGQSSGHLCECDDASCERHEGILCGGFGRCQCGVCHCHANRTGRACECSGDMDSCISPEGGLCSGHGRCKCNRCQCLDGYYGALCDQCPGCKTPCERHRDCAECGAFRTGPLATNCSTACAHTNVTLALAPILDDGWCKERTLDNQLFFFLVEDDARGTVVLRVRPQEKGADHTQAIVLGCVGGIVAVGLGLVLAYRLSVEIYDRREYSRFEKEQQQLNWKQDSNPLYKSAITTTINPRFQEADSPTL
procedure_summary: Fluorescence Polarization (FP) assay for α4β7 binding, competition with fluorescein-labeled peptide
measurement_setup: 6.5 nM integrin α4β7, 3 nM fluorescein-labeled peptide, 2 mM MnCl2; Tables 3A, 3B, 4; read-out: FP Assay (Example 5) IC50
pIC50: −log10 of the molar value.

{"compound": "Cc1cc(=O)n([C@@H](CC(C)C)C(=O)N[C@@H](CC(=O)O)c2cc(-c3c(C)cccc3C)cc(F)c2F)cc1CCN1CC(F)C1 [D-P2]", "assay_target": "integrin α4β7 (Homo sapiens, UniProt P13612+P26010)", "pIC50": "> 8.00"}

As a next step, examine the compound that follows.
The compound listed as COc1ccc(C)c(-c2cc(C)c(F)c([C@H](CC(=O)O)NC(=O)C(CC(C)C)n3cc(CCN4CCC4)c(C(F)(F)F)cc3=O)c2)c1C (single isomer, unassigned) [AG-P2] shows pIC50 equal to > 8.00

These data points were gathered from patent US20240174632A1.
